Ref: ChEMBL document CHEMBL4190404

Would you mind telling me the reported solubility at 24 h, 120 µM of each entry?
# assay.protocol: Aqueous solubility in pH 5.5 phosphate buffer at 120 uM after 24 hrs by HPLC method
# Assay type: physicochemical
# cond: phosphate buffer, pH 5.5
Numbers only, in µM.

Look over these answered cases.
>>> recorded_number("Cc1[nH]c(/C=C2\\C(=O)Nc3ccc(C(=O)O)cc32)c(C)c1C(=O)N[C@@H](Cc1ccccc1)C(=O)O")
110
>>> recorded_number("COC(=O)CC[C@H](NC(=O)c1c(C)[nH]c(/C=C2\\C(=O)Nc3ccc(C(=O)N[C@@H](Cc4ccccc4)C(=O)O)cc32)c1C)C(=O)OC")
60

Shift focus to the following entry.
Value of measured solubility at 24 h, 120 µM for the entry Cc1[nH]c(/C=C2\C(=O)Nc3ccc(C(=O)N[C@@H](Cc4ccccc4)C(=O)O)cc32)c(C)c1C(=O)N[C@@H](Cc1ccccc1)C(=O)O : 110

====

Please go through the items and note down their CHI.
# assay.protocol: Lipophilicity, chromatographic hydrophobicity index of the compound at pH 7.4 by HPLC method
# Assay type: physicochemical
# cond: buffer
One number for each entry.

Below: 3 compounds and their reported CHI.
>>> recorded_number("COC(=O)CC[C@H](NC(=O)c1c(C)[nH]c(/C=C2\\C(=O)Nc3ccc(C(=O)OC)cc32)c1C)C(=O)OC")
73
>>> recorded_number("COC(=O)[C@H](Cc1ccccc1)NC(=O)c1ccc2c(c1)/C(=C/c1[nH]c(C)c(C(=O)O)c1C)C(=O)N2")
56
>>> recorded_number("Cc1[nH]c(/C=C2\\C(=O)Nc3ccc(C(=O)N[C@@H](Cc4ccccc4)C(=O)O)cc32)c(C)c1C(=O)N[C@@H](Cc1ccccc1)C(=O)O")
39

Consider the record given below.
Entry COC(=O)CC[C@H](NC(=O)c1c(C)[nH]c(/C=C2\C(=O)Nc3ccc(C(=O)O)cc32)c1C)C(=O)OC , CHI reported as 38

====

# System: Receptor-type tyrosine-protein kinase FLT3 (Homo sapiens), P36888 [UNDEFINED MUTATION]
# Sequence (P36888 whole entry, looked up, change not shown): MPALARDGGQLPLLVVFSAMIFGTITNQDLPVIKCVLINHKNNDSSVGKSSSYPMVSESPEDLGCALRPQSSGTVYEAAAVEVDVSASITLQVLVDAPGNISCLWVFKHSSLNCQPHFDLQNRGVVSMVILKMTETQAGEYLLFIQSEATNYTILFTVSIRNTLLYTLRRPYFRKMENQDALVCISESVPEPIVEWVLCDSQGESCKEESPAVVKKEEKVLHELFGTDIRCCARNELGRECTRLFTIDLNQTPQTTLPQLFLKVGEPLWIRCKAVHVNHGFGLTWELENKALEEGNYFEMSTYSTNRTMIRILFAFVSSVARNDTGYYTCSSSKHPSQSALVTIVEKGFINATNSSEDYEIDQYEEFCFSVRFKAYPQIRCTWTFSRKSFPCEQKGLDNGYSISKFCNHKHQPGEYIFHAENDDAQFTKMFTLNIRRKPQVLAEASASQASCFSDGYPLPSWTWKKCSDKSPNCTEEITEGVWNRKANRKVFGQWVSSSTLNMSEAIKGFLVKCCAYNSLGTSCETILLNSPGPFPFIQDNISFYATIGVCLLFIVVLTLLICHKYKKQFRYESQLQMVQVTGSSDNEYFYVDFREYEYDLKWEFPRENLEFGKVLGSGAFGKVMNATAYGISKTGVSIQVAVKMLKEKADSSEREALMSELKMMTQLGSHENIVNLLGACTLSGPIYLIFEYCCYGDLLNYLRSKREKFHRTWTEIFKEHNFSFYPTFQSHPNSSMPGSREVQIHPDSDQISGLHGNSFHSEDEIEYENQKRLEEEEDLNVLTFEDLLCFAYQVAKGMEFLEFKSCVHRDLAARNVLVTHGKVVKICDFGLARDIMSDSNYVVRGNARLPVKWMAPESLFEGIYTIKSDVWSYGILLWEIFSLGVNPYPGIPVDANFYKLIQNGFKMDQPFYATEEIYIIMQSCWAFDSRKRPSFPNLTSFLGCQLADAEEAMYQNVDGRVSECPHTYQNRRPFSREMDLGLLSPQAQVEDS
# assay.protocol: Inhibition of FLT3 ITD mutant (unknown origin) using TAMRA-Src- tide as substrate at 12.5 uM after 1 hr by fluorescence polarization assay relative to control
measured.endpoint: inhibition (%)
Answers are plain numbers, in %.

>>> recorded_number("COC(=O)CC[C@H](NC(=O)c1c(C)[nH]c(/C=C2\\C(=O)Nc3ccc(C(=O)N[C@@H](Cc4ccccc4)C(=O)OC)cc32)c1C)C(=O)OC")
91
>>> recorded_number("COC(=O)CC[C@@H](NC(=O)c1c(C)[nH]c(/C=C2\\C(=O)Nc3ccc(C(=O)N[C@H](Cc4ccccc4)C(=O)OC)cc32)c1C)C(=O)OC")
63.8
>>> recorded_number("COC(=O)[C@H](Cc1ccccc1)NC(=O)c1ccc2c(c1)/C(=C/c1[nH]c(C)c(C(=O)N[C@@H](Cc3ccccc3)C(=O)OC)c1C)C(=O)N2")
92.3
>>> recorded_number("COC(=O)[C@H](Cc1ccccc1)NC(=O)c1ccc2c(c1)/C(=C/c1[nH]c(C)c(C(=O)N[C@H](Cc3ccccc3)C(=O)OC)c1C)C(=O)N2")
67.7
>>> recorded_number("COC(=O)[C@H](Cc1ccccc1)NC(=O)c1c(C)[nH]c(/C=C2\\C(=O)Nc3ccc(C(=O)N[C@H](Cc4ccccc4)C(=O)O)cc32)c1C")
94.8
>>> recorded_number("CCOC(=O)c1c(C)[nH]c(/C=C2\\C(=O)Nc3ccc(C(=O)N[C@H](CCC(=O)OC)C(=O)OC)cc32)c1C")
79.3
>>> recorded_number("COC(=O)CC[C@H](NC(=O)c1ccc2c(c1)/C(=C/c1[nH]c(C)c(C(=O)N[C@H](CCC(=O)OC)C(=O)OC)c1C)C(=O)N2)C(=O)OC")
81.9

Read the next record carefully.
inhibition measured on COC(=O)CC[C@H](NC(=O)c1ccc2c(c1)/C(=C/c1[nH]c(C)c(C(=O)N[C@@H](CCC(=O)OC)C(=O)OC)c1C)C(=O)N2)C(=O)OC = 80.5

====

For each entry below, report its solubility at 24 h, 120 µM value.
# assay.protocol: Aqueous solubility in pH 7.4 phosphate buffer at 120 uM after 24 hrs by HPLC method
# Type: physicochemical

Take a look at these entries with their results.
>>> result("COC(=O)CC[C@H](NC(=O)c1ccc2c(c1)/C(=C/c1[nH]c(C)c(C(=O)N[C@@H](CCC(=O)OC)C(=O)OC)c1C)C(=O)N2)C(=O)OC")
"< 5 µM"
>>> result("COC(=O)[C@H](Cc1ccccc1)NC(=O)c1c(C)[nH]c(/C=C2\\C(=O)Nc3ccc(C(=O)N[C@@H](Cc4ccccc4)C(=O)O)cc32)c1C")
"50 µM"
>>> result("COC(=O)CC[C@H](NC(=O)c1c(C)[nH]c(/C=C2\\C(=O)Nc3ccc(C(=O)N[C@@H](Cc4ccccc4)C(=O)O)cc32)c1C)C(=O)OC")
"≥ 120 µM"

Continue with the compound presented below.
Entry Cc1[nH]c(/C=C2\C(=O)Nc3ccccc32)c(C)c1CCC(=O)O [ORANTINIB] ; solubility at 24 h, 120 µM = ≥ 120 µM

====

# assay.protocol: Aqueous solubility in pH 5.5 phosphate buffer at 120 uM after 24 hrs by HPLC method
# Format: physicochemical
# cond: phosphate buffer, pH 5.5
measured.endpoint: solubility at 24 h, 120 µM

# example entries with known answers
>>> result("COC(=O)CC[C@H](NC(=O)c1c(C)[nH]c(/C=C2\\C(=O)Nc3ccc(C(=O)OC)cc32)c1C)C(=O)OC")
"< 5 µM"
>>> result("COC(=O)[C@H](Cc1ccccc1)NC(=O)c1c(C)[nH]c(/C=C2\\C(=O)Nc3ccc(C(=O)N[C@@H](Cc4ccccc4)C(=O)O)cc32)c1C")
"20 µM"
>>> result("COC(=O)CC[C@H](NC(=O)c1ccc2c(c1)/C(=C/c1[nH]c(C)c(C(=O)N[C@@H](CCC(=O)OC)C(=O)OC)c1C)C(=O)N2)C(=O)OC")
"< 5 µM"

Now for the molecule whose solubility at 24 h, 120 µM we want.
Kindly note the recorded solubility at 24 h, 120 µM for CCOC(=O)c1c(C)[nH]c(/C=C2\C(=O)Nc3ccc(C(=O)N[C@@H](Cc4ccccc4)C(=O)O)cc32)c1C , which is < 5 µM

====

# assay.protocol: Lipophilicity, chromatographic hydrophobicity index of the compound at pH 1.2 by HPLC method
# Type: physicochemical
# cond: buffer
measured.endpoint: CHI
Give bare numbers.

Sample records with CHI:
>>> recorded_number("COC(=O)CC[C@H](NC(=O)c1c(C)[nH]c(/C=C2\\C(=O)Nc3ccc(C(=O)N[C@@H](Cc4ccccc4)C(=O)OC)cc32)c1C)C(=O)OC")
78
>>> recorded_number("CCOC(=O)c1c(C)[nH]c(/C=C2\\C(=O)Nc3ccc(C(=O)N[C@@H](Cc4ccccc4)C(=O)O)cc32)c1C")
86
>>> recorded_number("COC(=O)[C@H](Cc1ccccc1)NC(=O)c1ccc2c(c1)/C(=C/c1[nH]c(C)c(C(=O)N[C@@H](Cc3ccccc3)C(=O)O)c1C)C(=O)N2")
80

Would you mind listing CHI for each of the following compounds?
1. COC(=O)CC[C@H](NC(=O)c1ccc2c(c1)/C(=C/c1[nH]c(C)c(C(=O)N[C@@H](Cc3ccccc3)C(=O)O)c1C)C(=O)N2)C(=O)OC
2. COC(=O)[C@H](Cc1ccccc1)NC(=O)c1c(C)[nH]c(/C=C2\C(=O)Nc3ccc(C(=O)O)cc32)c1C
3. COC(=O)CC[C@H](NC(=O)c1c(C)[nH]c(/C=C2\C(=O)Nc3ccc(C(=O)N[C@@H](Cc4ccccc4)C(=O)O)cc32)c1C)C(=O)OC

**Result**
1: 67; 2: 73; 3: 68

For every item below, please supply its CHI.
1. Cc1[nH]c(/C=C2\C(=O)Nc3ccc(C(=O)N[C@@H](Cc4ccccc4)C(=O)O)cc32)c(C)c1C(=O)O
2. Cc1[nH]c(/C=C2\C(=O)Nc3ccc(C(=O)O)cc32)c(C)c1C(=O)N[C@@H](Cc1ccccc1)C(=O)O
3. COC(=O)CC[C@H](NC(=O)c1ccc2c(c1)/C(=C/c1[nH]c(C)c(C(=O)N[C@@H](Cc3ccccc3)C(=O)OC)c1C)C(=O)N2)C(=O)OC
4. COC(=O)[C@H](Cc1ccccc1)NC(=O)c1ccc2c(c1)/C(=C/c1[nH]c(C)c(C(=O)N[C@@H](Cc3ccccc3)C(=O)OC)c1C)C(=O)N2
5. COC(=O)CC[C@H](NC(=O)c1c(C)[nH]c(/C=C2\C(=O)Nc3ccc(C(=O)O)cc32)c1C)C(=O)OC
6. Cc1[nH]c(/C=C2\C(=O)Nc3ccccc32)c(C)c1CCC(=O)O [ORANTINIB]
7. COC(=O)c1ccc2c(c1)/C(=C/c1[nH]c(C)c(C(=O)N[C@@H](Cc3ccccc3)C(=O)O)c1C)C(=O)N2

**Result**
[63, 61, 79, 92, 58, 75, 76]

Need CHI for each of these compounds.
1. COC(=O)[C@H](Cc1ccccc1)NC(=O)c1ccc2c(c1)/C(=C/c1[nH]c(C)c(C(=O)O)c1C)C(=O)N2
2. CCOC(=O)c1c(C)[nH]c(/C=C2\C(=O)Nc3ccc(C(=O)N[C@@H](CCC(=O)OC)C(=O)OC)cc32)c1C
3. COC(=O)CC[C@H](NC(=O)c1c(C)[nH]c(/C=C2\C(=O)Nc3ccc(C(=O)OC)cc32)c1C)C(=O)OC

**Result**
[73, 84, 73]
